# Lookup of reported solubility in water at 60° C. keyed by entry
Test: Solubility / compatibility of the organic solvents in water at 60° C.
Assay type: physicochemical
Method: The above component (A) in the present invention is a polar organic solvent having low compatibility with water. The expression “low compatibility with water” means that only a small amount of the component dissolves in water, the solubility in water at 60° C., that is, the proportion of a portion soluble in water is preferably 50 vol % or less, more preferably 30 vol % or less. […]
MEASURED_METRIC: solubility in water at 60° C. (vol %)

{"COMPOUND": "CCCN1CCN(CCC)C1=O", "RECORDED_MEASUREMENT": 12}
{"COMPOUND": "CCCOC(C)COC(C)CO (centres unmarked)", "RECORDED_MEASUREMENT": 10}
{"COMPOUND": "CCOCC(C)OCC(C)OCC (centres unmarked)", "RECORDED_MEASUREMENT": 5}
{"COMPOUND": "CCCCCCCCN1CCCC1=O", "RECORDED_MEASUREMENT": 13}
{"COMPOUND": "CCCCOCC(C)O (centres unmarked)", "RECORDED_MEASUREMENT": 6}
